Attribution: ChEMBL document CHEMBL1129052

system_tested: Potassium-transporting ATPase (Rattus norvegicus) (UniProt P09626+P18598)
experiment_summary: Gastric antisecretory activity was tested in rats at 30 mg/kg, po expressed as the percentage of inhibition against the acid output of the control group
Type: functional, organism-based
Design: dose 30 mg/kg
Entry flag: t if inhibition reaches 80%; f if it does not.

q: Determine whether measured inhibition meets or exceeds 80% for [O-][S+](Cc1ccccc1-n1cccc1)c1nccn1-c1ccccn1 (stereo unspecified)
a: t

q: Answer whether inhibition of CN(C)c1ccccc1C[S+]([O-])c1nc2c(n1-c1ccccn1)CCC2 (stereo unspecified) is greater than or equal to 80%.
a: t

q: For this compound, is measured inhibition 80% or higher? CCN(CC)c1ccccc1C[S+]([O-])c1nccn1-c1ncccc1OC (stereo unspecified)
a: t

q: Dear colleague, could you confirm whether Cc1cc(C)nc(-n2ccnc2[S+]([O-])Cc2ccccc2N(C)C)c1 (stereo unspecified) has inhibition at or above 80%?
a: f

q: Has CN(C)c1ccccc1C[S+]([O-])c1nc(-c2ccccc2)cn1Cc1ccccc1 (stereo unspecified) a recorded inhibition greater than or equal to 80%?
a: f

q: Is reported inhibition greater than or equal to 80% here: COc1cnc(-n2ccnc2[S+]([O-])Cc2ccccc2N(C)C)cc1OC (stereo unspecified)
a: f

q: Item COc1cccnc1-n1ccnc1[S+]([O-])Cc1ccccc1N1CCCCC1 (stereo unspecified) with inhibition of 80% or above?
a: f

q: Could you tell me if the measured inhibition of Cc1cccnc1-n1ccnc1[S+]([O-])Cc1ccccc1N (stereo unspecified) reaches 80% or more?
a: t

q: Does the compound COc1cccnc1-n1ccnc1[S+]([O-])Cc1ccccc1-n1cccc1 (stereo unspecified) have recorded inhibition that is 80% or more?
a: f

---

system_tested: Potassium-transporting ATPase (Rattus norvegicus) (UniProt P09626+P18598)
experiment_summary: Gastric antisecretory activity was tested in rats at 30 mg/kg, po expressed as the percentage of inhibition against the acid output of the control group
Format: functional, organism-based
Set-up: dose 30 mg/kg
measured_quantity: inhibition (%)
Give the value in % but do not write % after it.

q: Check the records and state inhibition for CN(C)c1ccccc1C[S+]([O-])c1nccn1-c1ncccc1O (stereo not given)
a: 1

q: Look up and report measured inhibition for this entry: COc1ccc2[nH]c([S+]([O-])Cc3ncc(C)c(OC)c3C)nc2c1 (stereo not given)
a: 100

q: Kindly indicate its recorded inhibition. Item: CN(C)c1ccccc1C[S+]([O-])c1nccn1-c1ccc(N)cn1 (stereo not given)
a: 48

q: Indicate the recorded inhibition value for this compound: Cc1cccnc1-n1c([S+]([O-])Cc2ccccc2N(C)C)nc2c1CCC2 (stereo not given)
a: 87

q: Consider the compound COc1cc(C)nc(-n2ccnc2[S+]([O-])Cc2ccccc2N(C)C)c1 (stereo not given) . State its measured inhibition.
a: 59

q: Given CN(C)c1ccccc1C[S+]([O-])c1nccn1-c1ccc(C(F)(F)F)cn1 (stereo not given) , respond with its inhibition.
a: 36

q: Supply reported inhibition belonging to this compound: CCN(CC)c1ccccc1C[S+]([O-])c1nccn1-c1ncccc1C (stereo not given)
a: 100

q: Dear colleague, please send me the reported inhibition for CCN(CC)c1ccccc1C[S+]([O-])c1nc2c(n1-c1ccncc1)CCC2 (stereo not given) when you can.
a: 0

q: // fetch inhibition given entry CNc1ccccc1C[S+]([O-])c1nccn1-c1ccccn1 (stereo not given)
a: 54

q: # return recorded inhibition for input CCN(CC)c1ccccc1C[S+]([O-])c1nc2c(n1-c1ncccc1C)CCC2 (stereo not given)
a: 53

---

Exercise: for every item that follows, state its recorded pIC50.
Interpret pIC50 as the negative base-10 log of the concentration measured in mol/L.

q: With Potassium-transporting ATPase (Sus scrofa) as the test system, provide measured pIC50 for this molecule: CC(C)Oc1cccnc1-n1ccnc1[S+]([O-])Cc1ccccc1N(C)C (stereo not drawn)
Sequence (P18434 whole entry): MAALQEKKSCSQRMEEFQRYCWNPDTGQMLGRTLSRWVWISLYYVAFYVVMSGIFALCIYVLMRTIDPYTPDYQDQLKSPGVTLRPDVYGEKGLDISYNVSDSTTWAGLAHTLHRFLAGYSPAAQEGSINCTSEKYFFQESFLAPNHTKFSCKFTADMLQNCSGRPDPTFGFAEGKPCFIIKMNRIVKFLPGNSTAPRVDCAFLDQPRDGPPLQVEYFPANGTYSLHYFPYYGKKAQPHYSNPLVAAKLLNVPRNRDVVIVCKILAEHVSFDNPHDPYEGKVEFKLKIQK
Sequence (P19156 whole entry): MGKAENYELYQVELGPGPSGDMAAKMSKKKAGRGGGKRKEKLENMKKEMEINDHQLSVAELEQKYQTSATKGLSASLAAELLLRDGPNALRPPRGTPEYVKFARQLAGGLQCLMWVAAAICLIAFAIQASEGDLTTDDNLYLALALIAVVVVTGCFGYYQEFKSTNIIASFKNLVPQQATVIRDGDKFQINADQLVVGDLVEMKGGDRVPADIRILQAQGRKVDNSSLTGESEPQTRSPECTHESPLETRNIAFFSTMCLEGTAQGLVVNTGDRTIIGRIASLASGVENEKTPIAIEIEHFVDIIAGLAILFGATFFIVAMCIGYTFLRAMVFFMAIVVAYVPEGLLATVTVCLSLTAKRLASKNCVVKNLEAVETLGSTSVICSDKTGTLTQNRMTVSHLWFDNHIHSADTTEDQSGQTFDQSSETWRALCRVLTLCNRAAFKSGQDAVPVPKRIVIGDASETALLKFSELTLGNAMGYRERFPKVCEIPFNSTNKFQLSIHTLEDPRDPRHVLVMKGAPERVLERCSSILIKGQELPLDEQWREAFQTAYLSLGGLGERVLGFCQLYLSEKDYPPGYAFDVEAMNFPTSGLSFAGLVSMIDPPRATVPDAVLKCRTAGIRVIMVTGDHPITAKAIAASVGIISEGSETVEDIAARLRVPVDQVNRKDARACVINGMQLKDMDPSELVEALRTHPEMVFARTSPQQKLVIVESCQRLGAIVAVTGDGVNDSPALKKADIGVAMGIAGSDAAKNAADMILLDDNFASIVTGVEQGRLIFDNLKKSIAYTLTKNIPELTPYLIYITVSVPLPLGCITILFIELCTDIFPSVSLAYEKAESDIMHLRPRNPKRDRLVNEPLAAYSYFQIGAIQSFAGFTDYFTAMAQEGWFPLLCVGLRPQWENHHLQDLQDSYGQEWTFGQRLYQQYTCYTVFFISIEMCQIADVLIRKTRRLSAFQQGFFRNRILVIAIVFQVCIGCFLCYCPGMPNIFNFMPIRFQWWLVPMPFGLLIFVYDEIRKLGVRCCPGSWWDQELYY
a: 4.80

q: Give Potassium-transporting ATPase (Sus scrofa) pIC50 for the following molecule: CNc1ccccc1C[S+]([O-])c1nccn1-c1ncccc1OC (stereo not drawn)
a: 5.22

q: Under Potassium-transporting ATPase (Sus scrofa), report pIC50 for CNc1ccccc1C[S+]([O-])c1nc2c(n1-c1ncccc1C)CCC2 (stereo not drawn)
a: 4.09

---

system_tested: Potassium-transporting ATPase (Rattus norvegicus) (UniProt P09626+P18598)
experiment_summary: Gastric antisecretory activity was tested in rats at 30 mg/kg, po expressed as the percentage of inhibition against the acid output of the control group
Type: functional, organism-based
Set-up: dose 30 mg/kg
For each record, write down the corresponding inhibition.
Just the number in %, nothing appended.

q: Recall and state the measured inhibition for [O-][S+](Cc1ccccc1N1CCCCC1)c1nccn1-c1ccccn1 (stereo unspecified) .
a: 100

q: // Input: CC(=O)Oc1cccnc1-n1ccnc1[S+]([O-])Cc1ccccc1N(C)C (stereo unspecified) . Output its inhibition only.
a: 2

q: Note down inhibition recorded for CN(C)c1ccccc1C[S+]([O-])c1nccn1CCc1ccccn1 (stereo unspecified)
a: 87

q: Supply reported inhibition belonging to this molecule: COc1cccnc1-n1ccnc1[S+]([O-])Cc1ccccc1NC(C)=O (stereo unspecified)
a: 90

q: Please give the documented inhibition of [O-][S+](Cc1ccccc1-n1cccc1)c1nc2c(n1-c1ccccn1)CCC2 (stereo unspecified)
a: 21

q: Please look at this molecule and report its inhibition: CN(C)c1ccccc1C[S+]([O-])c1nccn1-c1ccc(Cl)cn1 (stereo unspecified)
a: 0

q: // Input: CN(C)c1ccccc1C[S+]([O-])c1nc2c(n1-c1ccccc1)CCC2 (stereo unspecified) . Output its inhibition only.
a: 20

q: Identify the reported inhibition for the following entry. Nc1ccccc1C[S+]([O-])c1nccn1-c1ccccn1 (stereo unspecified)
a: 29

q: Recall and state the measured inhibition for Cc1cc(Br)cnc1-n1ccnc1[S+]([O-])Cc1ccccc1N(C)C (stereo unspecified) .
a: 46

q: Write down inhibition measured for item CNc1ccccc1C[S+]([O-])c1nccn1-c1ncccc1OC (stereo unspecified)
a: 83

q: Please report the measured inhibition for CC(=O)Nc1ccccc1C[S+]([O-])c1nc2c(n1-c1ccccn1)CCC2 (stereo unspecified)
a: 75

---

system_tested: Potassium-transporting ATPase (Rattus norvegicus) (UniProt P09626+P18598)
experiment_summary: Gastric antisecretory activity was tested in rats at 30 mg/kg, po expressed as the percentage of inhibition against the acid output of the control group
Format: functional, organism-based
Design: dose 30 mg/kg
measured_quantity: inhibition

q: Find the measured inhibition of COc1cccc(-n2ccnc2[S+]([O-])Cc2ccccc2N(C)C)n1 (stereo not given) and report it.
a: 0%

q: Let me know recorded inhibition for CN(C)c1ccccc1C[S+]([O-])c1nc2c(n1-c1ccccn1)CCCC2 (stereo not given) , thanks.
a: 12%

q: Give the measured inhibition for CNc1ccccc1C[S+]([O-])c1nc2c(n1-c1ncccc1C)CCC2 (stereo not given)
a: 90%

q: Name the recorded inhibition of the compound listed here: CC(=O)Nc1ccc(-n2ccnc2[S+]([O-])Cc2ccccc2N(C)C)nc1 (stereo not given)
a: 64%

q: Provide only the value of recorded inhibition for CN(C)c1ccccc1C[S+]([O-])c1ncc(-c2ccccc2)n1Cc1ccccc1 (stereo not given)
a: 0%

q: Specify inhibition for [O-][S+](Cc1ccccc1N1CCOCC1)c1nccn1-c1ccccn1 (stereo not given) and stop.
a: 90%

q: Give inhibition for CCN(CC)c1ccccc1C[S+]([O-])c1nccn1-c1ccccn1 (stereo not given)
a: 96%

q: Query inhibition for Cc1cccnc1-n1ccnc1[S+]([O-])Cc1ccccc1-n1cccc1 (stereo not given)
a: 47%

q: Provide measured inhibition value, entry: CN(C)c1ccccc1C[S+]([O-])c1nccn1Cc1ccccn1 (stereo not given)
a: 100%

q: Report measured inhibition; entry is CN(C)c1ccccc1C[S+]([O-])c1nccn1-c1cnccn1 (stereo not given)
a: 30%

q: Report inhibition, nothing else, for this compound: [O-][S+](Cc1ccccc1N1CCOCC1)c1nc2c(n1-c1ccccn1)CCC2 (stereo not given)
a: 80%

q: Provide measured inhibition value, entry: COc1ccc(-n2ccnc2[S+]([O-])Cc2ccccc2N(C)C)nc1 (stereo not given)
a: 98%

q: Tell me measured inhibition for CN(C)c1ccccc1C[S+]([O-])c1nccn1-c1ncccc1OCc1ccccc1 (stereo not given) please.
a: 34%

q: Report measured inhibition; entry is CN(C)c1ccccc1C[S+]([O-])c1nc2c(n1Cc1ccccn1)CCC2 (stereo not given)
a: 12%

q: Quickly give me recorded inhibition for CN(C)c1ccccc1C[S+]([O-])c1nc(-c2ccccc2)c(-c2ccccc2)[nH]1 (stereo not given)
a: 0%

q: Fill in reported inhibition for this entry: Cc1cccnc1-n1ccnc1[S+]([O-])Cc1ccccc1N1CCCCC1 (stereo not given)
a: 82%

q: Please report the measured inhibition for CCN(CC)c1ccccc1C[S+]([O-])c1nc2c(n1Cc1ccccn1)CCC2 (stereo not given)
a: 38%

q: For the compound CN(C)c1ccccc1C[S+]([O-])c1nccn1-c1ccccc1 (stereo not given) , give its reported inhibition.
a: 9%

q: Please list inhibition recorded for the compound CN(C)c1ccccc1C[S+]([O-])c1nccn1-c1ccc(Br)cn1 (stereo not given)
a: 0%

q: Identify inhibition associated with the compound CN(C)c1ccccc1C[S+]([O-])c1nccn1-c1cc(OCC(F)(F)F)ccn1 (stereo not given)
a: 11%

q: Give inhibition for the following compound: Cc1ccc(-n2ccnc2[S+]([O-])Cc2ccccc2N(C)C)nc1 (stereo not given)
a: 47%

q: Indicate the recorded inhibition value for this compound: CCN(CC)c1ccccc1C[S+]([O-])c1nc2c(n1-c1ccccn1)CCC2 (stereo not given)
a: 98%

q: Check the records and state inhibition for CN(C)c1ccccc1C[S+]([O-])c1ncc(-c2ccccc2)n1-c1ccccc1 (stereo not given)
a: 0%

q: Supply measured inhibition of CN(C)c1ccccc1C[S+]([O-])c1nccn1-c1ccccn1 (stereo not given) in your reply.
a: 76%

q: Answer with the recorded inhibition of Cc1cccnc1-n1c([S+]([O-])Cc2ccccc2N)nc2c1CCC2 (stereo not given) only.
a: 95%

q: // Input: CN(C)c1ccccc1C[S+]([O-])c1nc2c(n1Cc1ccccc1)CCC2 (stereo not given) . Output its inhibition only.
a: 42%

q: Complete the entry with inhibition for COc1cccnc1-n1ccnc1[S+]([O-])Cc1ccccc1N(C)C (stereo not given)
a: 100%

q: For COc1cccnc1-n1c([S+]([O-])Cc2ccccc2N(C)C)nc2c1CCC2 (stereo not given) , write its inhibition.
a: 73%

q: Hello, please tell me recorded inhibition for this one: [O-][S+](Cc1ccccc1-n1cccn1)c1nccn1-c1ccccn1 (stereo not given)
a: 0%

q: Look up inhibition of CN(C)c1ccccc1C[S+]([O-])c1ncc(-c2ccccc2)n1C (stereo not given) and report it.
a: 0%

q: Name the recorded inhibition of the compound listed here: CN(C)c1ccccc1C[S+]([O-])c1nccn1C (stereo not given)
a: 98%

q: Quick one: give measured inhibition for CN(C)c1ccccc1C[S+]([O-])c1nccn1-c1ccc([N+](=O)[O-])cn1 (stereo not given)
a: 0%

q: Provide inhibition value for the following compound: CN(C)c1ccccc1C[S+]([O-])c1nccn1-c1ncccn1 (stereo not given)
a: 30%

q: For the compound CN(C)c1ccccc1C[S+]([O-])c1nc(-c2ccccc2)cn1C (stereo not given) , give its reported inhibition.
a: 0%

q: Specify reported inhibition for the compound shown: CN(C)c1ccccc1C[S+]([O-])c1nccn1Cc1ccccc1 (stereo not given)
a: 72%

q: Report inhibition, nothing else, for this compound: Cc1ccnc(-n2ccnc2[S+]([O-])Cc2ccccc2N(C)C)c1 (stereo not given)
a: 79%

q: Specify measured inhibition for CC(=O)Nc1ccccc1C[S+]([O-])c1nccn1-c1ccccn1 (stereo not given) .
a: 99%

q: Please supply the value of reported inhibition for the item CC(C)Oc1cccnc1-n1ccnc1[S+]([O-])Cc1ccccc1N(C)C (stereo not given)
a: 69%

q: Report inhibition, nothing else, for this compound: Cc1cccc(-n2ccnc2[S+]([O-])Cc2ccccc2N(C)C)n1 (stereo not given)
a: 57%

q: State, in one line, measured inhibition of CN(C)c1ccccc1C[S+]([O-])c1nccn1-c1ccncc1 (stereo not given)
a: 100%
